# SYSTEM TESTED: unphosphorylated-BTK kinase domain (UP-BTK), GST-tagged human BTK (389-659aa) (Homo sapiens (Human))
# Sequence (Q06187 389-659): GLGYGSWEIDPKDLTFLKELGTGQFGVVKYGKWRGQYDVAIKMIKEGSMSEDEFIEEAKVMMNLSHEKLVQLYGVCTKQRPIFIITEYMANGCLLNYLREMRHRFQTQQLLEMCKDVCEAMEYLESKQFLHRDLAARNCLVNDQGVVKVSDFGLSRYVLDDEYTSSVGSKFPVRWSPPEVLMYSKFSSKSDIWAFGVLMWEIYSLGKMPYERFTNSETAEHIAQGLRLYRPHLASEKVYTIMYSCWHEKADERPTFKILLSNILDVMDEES
# MEASUREMENT PROTOCOL: BTK kinase Lanthascreen binding assay
# TEST CONDITIONS: Lanthascreen tracer competition, 60 minutes incubation; pIC50 = negative log of the IC50 in molar
The following compounds are shown together with reported BTK_I_binding pIC50 values.

COMPOUND | COMPARISON OPERATOR | BTK_I_binding pIC50
N#C/C(=C\C1CC1)C(=O)N1CCC[C@@H](NC(=O)c2sc3nccc4c3c2NC(=O)N4c2ccc(C(=O)Nc3cc(C(F)(F)F)ccn3)cc2F)C1 [Example 836] | = | 7.9
Cc1nc(Oc2ccccc2)ccc1N1C(=O)Nc2c(C(=O)N[C@@H]3CCNC3)sc3nccc1c23 (single isomer, unassigned) [Example 717] | = | 6.4
C=CC(=O)N1CCC[C@@H](NC(=O)c2sc3nccc4c3c2NC(=O)N4c2cccc(C(C)(C)C)c2)C1 [Example 638] | = | 5.7
CC(C)(C)OC(=O)N1CCC(NC(=O)c2sc3nccc4c3c2NC(=O)N4c2ccc(Oc3ccccc3)cc2)CC1 [Example 627] | = | 5.9
C=CC(=O)N1CCC[C@@H](NC(=O)c2sc3nccc4c3c2NC(=O)N4c2ccc(C)c(C(F)(F)F)c2)C1 [Example 607] | = | 6.2
Cc1cc(Oc2ccccc2)ccc1N1C(=O)Nc2c(C(=O)N[C@@H]3CCCN(C(=O)[C@H]4CCCN4)C3)sc3nccc1c23 [Example 876] | = | 7.1
C=CC(=O)N1CCC[C@@H](NC(=O)c2sc3nccc4c3c2NC(=O)N4c2ccc(Oc3cccnc3)cc2)C1 [Example 774] | = | 7.9
C=CC(=O)N1CC[C@@H](NC(=O)c2sc3nccc4c3c2NC(=O)N4c2cnc(Oc3ccccc3)nc2C)C1 (single isomer, unassigned) [Example 664] | = | 7.6
C=CC(=O)N1CCC[C@@H](NC(=O)c2sc3nccc4c3c2NC(=O)N4c2ccc(CC(C)C)nc2C)C1 [Example 764] | = | 6.3
Cc1nc(Oc2ccccc2)cnc1N1C(=O)Nc2c(C(=O)N[C@@H]3CCCNC3)sc3nccc1c23 [Example 656] | = | 6.2
COc1ccccc1Oc1ccc(N2C(=O)Nc3c(C(=O)NC4CCCN(C#N)C4)sc4nccc2c34)c(C)c1 (stereo not drawn) [Example 883] | = | 7.0
O=C(N[C@@H]1CCCNC1)c1sc2nccc3c2c1NC(=O)N3c1cc(-c2ccccc2)cnn1 [Example 755] | < | 6
C=CC(=O)N1CCC[C@@H](NC(=O)c2sc3nccc4c3c2NC(=O)N4c2ncc(Oc3ccccc3)cn2)C1 [Example 665] | = | 7.8
Cc1cc(OC2CCCC2)ncc1N1C(=O)Nc2c(C(=O)N[C@@H]3CCNC3)sc3nccc1c23 (single isomer, unassigned) [Example 797] | = | 6.3
Cc1cc(Oc2ccccc2)ncc1N1C(=O)Nc2c(C(=O)N[C@@H]3CCNC3)sc3nccc1c23 (single isomer, unassigned) [Example 702] | = | 6.8
C=CC(=O)N1CCC[C@@H](NC(=O)c2sc3nccc4c3c2NC(=O)N4c2ccc(OC(C)C)nc2C)C1 [Example 732] | < | 6
C=CC(=O)N1CC[C@@H](NC(=O)c2sc3nccc4c3c2NC(=O)N4c2ccc(Oc3cccc(COc4ccccc4C#N)c3)cc2C)C1 [Example 847] | = | 7.6
C=CC(=O)N1CCC[C@@H](NC(=O)c2sc3nccc4c3c2NC(=O)N4c2ccnc(-c3ccccn3)c2)C1 [Example 709] | = | 6.7
C=CC(=O)N1CC[C@@H](NC(=O)c2sc3nccc4c3c2NC(=O)N4c2ncc(Oc3ccccc3)cn2)C1 [Example 749] | = | 7.3
Cc1cc(Oc2ccccc2)ccc1N1C(=O)Nc2c(C(=O)N[C@@H]3CCCN(C=O)C3)sc3nccc1c23 [Example 885] | = | 7.0
Cc1cc(Oc2ccccc2)ccc1N1C(=O)Nc2c(C(=O)N[C@@H]3CCCN(C)C3)sc3nccc1c23 [Example 873] | = | 6.9
C=CC(=O)N1C[C@@H](O)[C@@H](NC(=O)c2sc3nccc4c3c2NC(=O)N4c2ccnc(-c3ccccc3)c2)C1 [Example 718] | = | 6.3
C=CC(=O)N1CC[C@@H](NC(=O)c2sc3nccc4c3c2NC(=O)N4c2ccc(Oc3ccccn3)cc2C)C1 [Example 781] | = | 7.4
O=C(N[C@@H]1CCCNC1)c1sc2nccc3c2c1NC(=O)N3c1cccc(OC(F)(F)F)c1 [Example 620] | < | 6
Cc1cnc(-c2ccccc2)cc1N1C(=O)Nc2c(C(=O)N[C@@H]3CCCNC3)sc3nccc1c23 [Example 729] | < | 6
O=C(N[C@@H]1CCCNC1)c1sc2nccc3c2c1NC(=O)N3c1cccc(Oc2ccccc2)n1 [Example 645] | < | 5
Cc1nc(Oc2ccccc2)ccc1N1C(=O)Nc2c(C(=O)N[C@@H]3CCOC3)sc3nccc1c23 (single isomer, unassigned) [Example 793] | = | 6.8

Reference source: patent US10800792B2
